All figures here come from patent US10975056B2.

# TARGET_SYSTEM: DNMT1 (Homo sapiens)
# Sequence (P26358 whole entry, looked up): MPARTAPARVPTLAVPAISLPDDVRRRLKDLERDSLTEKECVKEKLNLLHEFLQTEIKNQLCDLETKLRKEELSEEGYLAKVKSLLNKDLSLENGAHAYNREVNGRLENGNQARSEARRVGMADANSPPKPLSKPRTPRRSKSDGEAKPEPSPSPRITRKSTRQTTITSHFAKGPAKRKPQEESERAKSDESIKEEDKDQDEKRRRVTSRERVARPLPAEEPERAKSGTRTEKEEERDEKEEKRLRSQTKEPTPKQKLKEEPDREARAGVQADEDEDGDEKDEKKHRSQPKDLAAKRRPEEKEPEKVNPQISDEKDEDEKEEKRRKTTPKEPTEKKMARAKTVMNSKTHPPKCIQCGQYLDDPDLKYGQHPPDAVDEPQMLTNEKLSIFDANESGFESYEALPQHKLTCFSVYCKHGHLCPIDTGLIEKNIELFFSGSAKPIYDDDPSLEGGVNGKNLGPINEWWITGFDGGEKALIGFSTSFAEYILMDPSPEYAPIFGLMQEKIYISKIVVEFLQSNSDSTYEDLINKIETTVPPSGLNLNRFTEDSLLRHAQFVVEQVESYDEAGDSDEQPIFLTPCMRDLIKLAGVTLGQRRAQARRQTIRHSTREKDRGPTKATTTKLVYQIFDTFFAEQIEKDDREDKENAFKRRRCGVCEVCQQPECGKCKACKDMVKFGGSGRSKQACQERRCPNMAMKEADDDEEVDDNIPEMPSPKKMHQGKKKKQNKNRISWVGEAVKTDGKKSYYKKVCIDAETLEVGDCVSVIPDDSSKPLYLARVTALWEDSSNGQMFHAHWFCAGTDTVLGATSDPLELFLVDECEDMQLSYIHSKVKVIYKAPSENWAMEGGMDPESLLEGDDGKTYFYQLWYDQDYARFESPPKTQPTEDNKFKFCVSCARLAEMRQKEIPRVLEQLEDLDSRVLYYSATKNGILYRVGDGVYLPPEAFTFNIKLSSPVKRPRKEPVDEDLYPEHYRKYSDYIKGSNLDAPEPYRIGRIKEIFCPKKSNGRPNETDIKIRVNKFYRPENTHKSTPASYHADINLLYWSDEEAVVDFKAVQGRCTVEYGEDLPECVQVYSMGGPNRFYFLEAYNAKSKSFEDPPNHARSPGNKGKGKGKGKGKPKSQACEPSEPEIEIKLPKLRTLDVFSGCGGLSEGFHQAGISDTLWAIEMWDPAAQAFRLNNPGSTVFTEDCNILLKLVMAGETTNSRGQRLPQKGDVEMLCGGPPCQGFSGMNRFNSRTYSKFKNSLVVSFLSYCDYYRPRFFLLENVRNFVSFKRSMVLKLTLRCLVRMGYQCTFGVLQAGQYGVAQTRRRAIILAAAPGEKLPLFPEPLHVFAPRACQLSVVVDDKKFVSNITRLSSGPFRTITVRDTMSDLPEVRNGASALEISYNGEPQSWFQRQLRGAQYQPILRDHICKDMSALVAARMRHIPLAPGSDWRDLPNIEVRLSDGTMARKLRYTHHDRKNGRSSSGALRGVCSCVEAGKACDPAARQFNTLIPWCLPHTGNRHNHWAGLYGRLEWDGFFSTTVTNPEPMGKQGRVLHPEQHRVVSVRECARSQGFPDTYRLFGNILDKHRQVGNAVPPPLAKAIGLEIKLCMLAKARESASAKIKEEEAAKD
# EXPERIMENT_DESCRIPTION: DNMT1 biochemical activity, breaklight assay and/or SPA assay
# CONDITION_PARAMETERS: breaklight assay and/or SPA assay, repeated experimental runs; read-out: average pIC50 against DNMT1 (converted)
Structures can show the parent of a compound that is named as a salt.
QUANTITY: IC50

Example results:
COMPOUND	IC50
CCc1c(C#N)c(SCc2ccc(/C=C/C(=O)O)cc2)nc(N(C)C)c1C#N [Example 102, Trifluoroacetic Acid Salt]	≥ 1000 nM
CCc1c(C#N)c(SC(C(N)=O)c2ccccc2)nc(N2CCN(C(C)=O)CC2)c1C#N (centres unmarked)	316 to 1000 nM
N#Cc1c(SC(C(N)=O)c2ccccc2)nc(N2CCNC(=O)CC2)c(C#N)c1C1CC1 (centres unmarked)	316 to 1000 nM
CCc1c(C#N)c(SC(C(N)=O)c2ccccc2)nc(N2CCCN(CC(=O)OC)CC2)c1C#N (centres unmarked)	≥ 1000 nM
CCc1c(C#N)c(SCc2ccc3c(c2)CCN(C(C)=O)C3)nc(N(C)C)c1C#N	≥ 1000 nM

For record CCc1c(C#N)c(SCc2ccc(CNC(=O)OC(C)(C)C)cc2)nc(N2CCCN(C)CC2)c1C#N the listed IC50 is ≥ 1000 nM

What the record says about CCc1c(C#N)c(SC(C(N)=O)c2ccccc2)nc(N2CCN(CCCN(C)C)CC2)c1C#N (centres unmarked) : IC50 is 316 to 1000 nM

Documented IC50 of CCc1c(C#N)c(SCc2ccc(CNC(C)=O)cc2)nc(N(C)CCO)c1C#N : ≥ 1000 nM

Sample CCc1c(C#N)c(SCc2ccc(=O)[nH]c2)nc(N(C)C)c1C#N ; IC50 observed: ≥ 1000 nM

In plain terms, CCc1c(C#N)c(SCc2ccc(COC(C)=O)cc2)nc(N2CCCN(C)CC2)c1C#N has a documented IC50 of 316 to 1000 nM

Given item CCc1c(C#N)c(SC(C(N)=O)c2ccccc2)nc(N2CCCN3CCCC3C2)c1C#N (centres unmarked) , the value recorded as its IC50 is 316 to 1000 nM

// field: IC50; key: CCc1c(C#N)c(SC(C(N)=O)c2ccccc2)nc(N2CC[C@@]3(CCCN3S(C)(=O)=O)[C@@H](O)C2)c1C#N (some centres unmarked) ; value = 316 to 1000 nM

Looking up CCc1c(C#N)c(SCc2ccccc2)nc(N2CCC(N)CC2)c1C#N , I see its IC50 listed as ≥ 1000 nM

IC50 reported for this compound CCc1c(C#N)c(SCc2ccc(C(N)=O)cc2)nc(N2CCCN(C)CC2)c1C#N : 316 to 1000 nM

Consider CN1CCN(c2nc(SC(C(N)=O)c3ccccc3)c(C#N)c(C3CC3)c2C#N)CCC1=O (centres unmarked) . Its measured IC50 is ≥ 1000 nM

IC50 in this record for CCc1c(C#N)c(SC(C(N)=O)c2ccccc2)nc(N2CCN(C(=O)c3ccccc3)CC2)c1C#N (centres unmarked) : 316 to 1000 nM

Query CCc1c(C#N)c(SC(C(N)=O)c2ccccc2)nc(N2CCC(F)(F)CC2)c1C#N (centres unmarked) yields IC50 of ≥ 1000 nM
